Reference source: PubChem BioAssay AID1963856

# Test system: LG0567-F671-PDC KRAS tumor spheroid viability
# Run description: Anticancer human tumor LG0567-F671-PDC patient-derived lung adenocarcinoma cell line growth inhibition [KRAS2]
# Test settings: second compound 3.16 µM; first compound 1 µM; stronger effect = lower value; spheroids with HUVEC and MSC
Output Fulfilled for records whose viability, T/C is lower than 10%, Not fulfilled for records at or above 10%.

Field: below-cutoff. Rule: recorded viability, T/C strictly less than 10%. Subject: COC(=O)c1ccc2c(C(=Nc3ccc(N(C)C(=O)CN4CCN(C)CC4)cc3)c3ccccc3)c(O)[nH]c2c1 + CNCc1ccccc1-c1csc(C(C)Nc2nc(C)nc3cc(OC)c(OC)cc23)c1
Fulfilled

Field: below-cutoff. Rule: recorded viability, T/C strictly less than 10%. Subject: COC(=O)c1ccc2c(C(=Nc3ccc(N(C)C(=O)CN4CCN(C)CC4)cc3)c3ccccc3)c(O)[nH]c2c1 + CC1OCC2(CCN(c3cnc(Sc4ccnc(N)c4Cl)c(N)n3)CC2)C1N
Not fulfilled

Field: below-cutoff. Rule: recorded viability, T/C strictly less than 10%. Subject: COc1cc(Nc2ncc3c(n2)-c2ccc(Cl)cc2C(c2c(F)cccc2OC)=NC3)ccc1C(=O)O + CNCc1ccccc1-c1csc(C(C)Nc2nc(C)nc3cc(OC)c(OC)cc23)c1
Fulfilled

Field: below-cutoff. Rule: recorded viability, T/C strictly less than 10%. Subject: CC1OCC2(CCN(c3cnc(Sc4ccnc(N)c4Cl)c(N)n3)CC2)C1N (stereo not given) + C=CC(=O)N1CCN(c2nc(=O)n(-c3c(C)ccnc3C(C)C)c3nc(-c4c(O)cccc4F)c(F)cc23)C(C)C1
Fulfilled

Field: below-cutoff. Rule: recorded viability, T/C strictly less than 10%. Subject: CC1COCCN1c1cc(-c2ccnn2C)c2ccnc(-c3ccn[nH]3)c2n1 (stereo not given) + C=CC(=O)N1CCN(c2nc(OCC3CCCN3C)nc3c2CCN(c2cccc4cccc(C)c24)C3)CC1CC#N
Not fulfilled

Field: below-cutoff. Rule: recorded viability, T/C strictly less than 10%. Subject: CC(=O)OC12COC1CC(O)C1(C)C(=O)C(O)C3=C(C)C(OC(=O)C(O)C(NC(=O)OC(C)(C)C)c4ccccc4)CC(O)(C(OC(=O)c4ccccc4)C21)C3(C)C (stereo not given) + C=CC(=O)N1CCN(c2nc(OCC3CCCN3C)nc3c2CCN(c2cccc4cccc(C)c24)C3)CC1CC#N
Not fulfilled

Field: below-cutoff. Rule: recorded viability, T/C strictly less than 10%. Subject: CC1(C)CCC(CN2CCN(c3ccc(C(=O)NS(=O)(=O)c4ccc(NCC5CCOCC5)c([N+](=O)[O-])c4)c(Oc4cnc5[nH]ccc5c4)c3)CC2)=C(c2ccc(Cl)cc2)C1 + CNCc1ccccc1-c1csc(C(C)Nc2nc(C)nc3cc(OC)c(OC)cc23)c1
Fulfilled

Field: below-cutoff. Rule: recorded viability, T/C strictly less than 10%. Subject: COC(=O)c1ccc2c(C(=Nc3ccc(N(C)C(=O)CN4CCN(C)CC4)cc3)c3ccccc3)c(O)[nH]c2c1 + C=CC(=O)N1CCN(c2nc(OCC3CCCN3C)nc3c2CCN(c2cccc4cccc(C)c24)C3)CC1CC#N
Fulfilled

====

# Tested on: LG0567-F671-PDC KRAS tumor spheroid viability
# Run description: Anticancer human tumor LG0567-F671-PDC cell line growth inhibition [KRAS2];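 further: drug exposure lasted seven days after spheroids formed for three days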
# Test settings: second compound 1 µM; first compound 3.16 µM; stronger effect = lower value; spheroids with HUVEC and MSC
Output T for records whose viability, T/C is lower than 50%, F for records at or above 50%.

Consider the worked cases shown below.
Compound: COc1cc2nccc(Oc3ccc(NC(=O)C4(C(=O)Nc5ccc(F)cc5)CC4)cc3)c2cc1OC + COc1cc2nc(C)nc(NC(C)c3cc(N)cc(C(F)(F)F)c3)c2cc1OC1CCOC1
Tested system: LG0567-F671-PDC KRAS tumor spheroid viability
Group: F
//
Compound: Cn1nccc1Nc1nccc(-c2cc3c(s2)C(C)(C)N(CCN2CCOCC2)C3=O)n1 + COc1cc2nc(C)nc(NC(C)c3cc(N)cc(C(F)(F)F)c3)c2cc1OC1CCOC1
Tested system: LG0567-F671-PDC KRAS tumor spheroid viability
Group: T
//
Compound: CC(C)NCC(C(=O)N1CCN(c2ncnc3c2C(C)CC3O)CC1)c1ccc(Cl)cc1 (stereo not given) + CNCc1ccccc1-c1csc(C(C)Nc2nc(C)nc3cc(OC)c(OC)cc23)c1
Tested system: LG0567-F671-PDC KRAS tumor spheroid viability
Group: T
//
Compound: COC(=O)c1ccc2c(C(=Nc3ccc(N(C)C(=O)CN4CCN(C)CC4)cc3)c3ccccc3)c(O)[nH]c2c1 + COc1cc2nc(C)nc(NC(C)c3cc(N)cc(C(F)(F)F)c3)c2cc1OC1CCOC1
Tested system: LG0567-F671-PDC KRAS tumor spheroid viability
Group: F

Proceed to the following item.
Field: below-cutoff. Rule: recorded viability, T/C strictly less than 50%. Subject: CC(=O)OC12COC1CC(O)C1(C)C(=O)C(O)C3=C(C)C(OC(=O)C(O)C(NC(=O)OC(C)(C)C)c4ccccc4)CC(O)(C(OC(=O)c4ccccc4)C21)C3(C)C (stereo not given) + CNCc1ccccc1-c1csc(C(C)Nc2nc(C)nc3cc(OC)c(OC)cc23)c1
T
